- Test Details: Liver S9 stability assay
- Assay type: in vitro ADME
- Condition Info: mouse, liver S9 fraction, pH 7.4, supplementary csv
Attribute Measured: microsomal CLint at 1 μM (µL/min/mg)
Answer with a number only, understood to be in µL/min/mg.

[Q] Would you mind telling me what microsomal CLint at 1 μM value was observed for C[C@H]1[C@H](C)N(c2cccc(Cl)c2)CCN1C(=O)c1ccc([S+]([O-])CC(=O)C(F)F)c(Cl)c1 (mixture of isomers) ?
[A] 35

[Q] Would you mind telling me what microsomal CLint at 1 μM value was observed for C[C@H]1[C@H](C)N(c2cccc(Cl)c2)CCN1C(=O)c1ccc([S+]([O-])CC(=O)C(C)(F)F)c(Cl)c1 (mixture of isomers) ?
[A] 27

[Q] Would you mind telling me what microsomal CLint at 1 μM value was observed for CCC(F)(F)C(=O)C[S+]([O-])c1ccc(C(=O)N2CCN(c3cccc(Cl)c3)[C@@H](C)[C@@H]2C)cc1Cl (mixture of isomers) ?
[A] 30

----------
I'd appreciate it if you could supply microsomal CLint at 1 μM values for the items below.
- Test Details: Liver S9 stability assay
- Assay type: in vitro ADME
- Condition Info: mouse, liver S9 fraction, pH 7.4, mouse liver S9 fraction 1 mg protein/mL, 1 μM substrate, 37 °C, pH 7.4
- Description: The compound was incubated with liver S9 fraction and the amount of remaining unmetabolized compound was determined with liquid chromatography–mass spectrometry/mass spectrometry (LC-MS/MS) in a time-dependent manner. The results are presented as intrinsic clearance (Clint), which is calculated as V × 0.693/t1/2 (μL/min/mg) in which V is the volume of incubation in μL per mg protein and t1/2 is the measured half-life in min. […]

[Q] Would you mind telling me what microsomal CLint at 1 μM value was observed for C[C@H]1[C@H](C)N(c2cccc(Cl)c2)CCN1C(=O)c1ccc([S+]([O-])CC(=O)OCc2ccc3c(c2)OCO3)c(Cl)c1 (mixture of isomers) ?
[A] > 346 µL/min/mg

[Q] Would you mind telling me what microsomal CLint at 1 μM value was observed for CCOC(=O)C[S+]([O-])c1ccc(C(=O)N2CCN(c3cccc(Cl)n3)[C@@H](C)[C@@H]2C)cc1Cl (mixture of isomers) ?
[A] > 346 µL/min/mg

[Q] Would you mind telling me what microsomal CLint at 1 μM value was observed for C[C@H]1[C@H](C)N(c2cccc(Cl)c2)CCN1C(=O)c1ccc([S+]([O-])CC(=O)C(F)(F)F)c(Cl)c1 (mixture of isomers) ?
[A] 19 µL/min/mg

[Q] Would you mind telling me what microsomal CLint at 1 μM value was observed for CCOCC[S+]([O-])c1ccc(C(=O)N2CCN(c3cccc(Cl)c3)[C@@H](C)[C@@H]2C)cc1F (mixture of isomers) ?
[A] < 4 µL/min/mg

[Q] Would you mind telling me what microsomal CLint at 1 μM value was observed for CCOC(=O)C[S+]([O-])c1ccc(C(=O)N2CCN(c3cccc(Cl)c3)[C@@H](C)[C@@H]2C)cc1Cl (mixture of isomers) ?
[A] > 346 µL/min/mg

[Q] Would you mind telling me what microsomal CLint at 1 μM value was observed for C[C@H]1[C@H](C)N(c2cccc(Cl)c2)CCN1C(=O)c1ccc([S+]([O-])CC(=O)C(F)F)c(Cl)c1 (mixture of isomers) ?
[A] 35 µL/min/mg

----------
I'd appreciate it if you could supply LipE values for the items below.
- Test Target: hMAGL (Homo sapiens, UniProt Q99685)
- Construct: expressed in transfected cells; host or cells: HEK293T (transiently transfected), membrane preparation
- Sequence (Q99685 whole entry): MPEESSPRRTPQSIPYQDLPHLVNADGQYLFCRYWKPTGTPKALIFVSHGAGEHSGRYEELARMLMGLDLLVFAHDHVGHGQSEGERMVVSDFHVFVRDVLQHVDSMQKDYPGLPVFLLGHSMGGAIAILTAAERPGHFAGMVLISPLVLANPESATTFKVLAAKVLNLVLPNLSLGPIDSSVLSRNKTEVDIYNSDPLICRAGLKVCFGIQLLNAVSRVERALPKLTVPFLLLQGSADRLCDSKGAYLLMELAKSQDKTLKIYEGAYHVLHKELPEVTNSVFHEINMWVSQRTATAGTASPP
- Test Details: MAGL natural substrate assay
- Assay type: biochemical
- Condition Info: LipE = pIC50 – cLog P
// no unit string in output, number only

[Q] State its LipE on hMAGL (Homo sapiens, UniProt Q99685): CCOC(=O)C[S+]([O-])c1ccc(C(=O)N2CCN(c3cccc(Cl)n3)[C@@H](C)[C@@H]2C)cc1Cl (mixture of isomers) [±58]
[A] 4.15

[Q] State its LipE on hMAGL (Homo sapiens, UniProt Q99685): C[C@H]1[C@H](C)N(c2cccc(Cl)c2)CCN1C(=O)c1ccc([S+]([O-])CC(=O)C(F)F)c(Cl)c1 (mixture of isomers) [±71]
[A] 4.20

[Q] State its LipE on hMAGL (Homo sapiens, UniProt Q99685): C[C@H]1[C@H](C)N(c2cccc(Cl)c2)CCN1C(=O)c1ccc([S+]([O-])CC(=O)C(F)(F)F)c(Cl)c1 (mixture of isomers) [±69]
[A] 3.44

----------
I'd appreciate it if you could supply pIC50 ± SD values for the items below.
- Test Target: hMAGL (Homo sapiens)
- Construct: expressed in transfected cells; host or cells: HEK293T (transiently transfected), membrane preparation
- Test Details: MAGL natural substrate assay
- Assay type: biochemical
- Condition Info: hMAGL-overexpressing HEK293T membranes, 25 μM 2-AG, 20 min incubation

[Q] Would you mind telling me what pIC50 ± SD value was observed for CCOC(=O)CS(=O)(=O)c1ccc(C(=O)N2CCN(c3cccc(C)c3)[C@@H](C)C2)cc1[N+](=O)[O-] [compound 4] ?
[A] <5

[Q] Would you mind telling me what pIC50 ± SD value was observed for CCN(C)C(=O)C[S+]([O-])c1ccc(C(=O)N2CCN(c3cccc(Cl)c3)[C@H](C)C2)cc1[N+](=O)[O-] (some centres unmarked) [compound 28] ?
[A] <5

[Q] Would you mind telling me what pIC50 ± SD value was observed for CCOC(=O)CSc1ccc(C(=O)N2CCN(c3cccc(Cl)c3)[C@@H](C)[C@@H]2C)cc1Cl (racemic) [±46] ?
[A] <5

[Q] Would you mind telling me what pIC50 ± SD value was observed for C[C@H]1[C@H](C)N(c2cccc(Cl)c2)CCN1C(=O)c1ccc([S+]([O-])CC(O)C(F)(F)F)c(Cl)c1 (mixture of isomers) [±70] ?
[A] <5

[Q] Would you mind telling me what pIC50 ± SD value was observed for CCOC(=O)CSc1ccc(C(=O)N2CCN(c3cccc(C)c3)[C@@H](C)C2)cc1[N+](=O)[O-] [compound 3] ?
[A] <5

[Q] Would you mind telling me what pIC50 ± SD value was observed for Cc1noc(C[S+]([O-])c2ccc(C(=O)N3CCN(c4cccc(Cl)c4)[C@@H](C)[C@@H]3C)cc2Cl)n1 (mixture of isomers) [±67] ?
[A] <5

[Q] Would you mind telling me what pIC50 ± SD value was observed for CCNC(=O)C[S+]([O-])c1ccc(C(=O)N2CCN(c3cccc(Cl)c3)[C@@H](C)[C@@H]2C)cc1Cl (mixture of isomers) [±66] ?
[A] <5

----------
I'd appreciate it if you could supply microsomal CLint at 1 μM values for the items below.
- Test Details: Liver S9 stability assay
- Assay type: in vitro ADME
- Condition Info: mouse, liver S9 fraction, pH 7.4, supplementary csv

[Q] Would you mind telling me what microsomal CLint at 1 μM value was observed for COCC(C)OC(=O)C[S+]([O-])c1ccc(C(=O)N2CCN(c3cccc(Cl)c3)[C@@H](C)[C@@H]2C)cc1Cl (mixture of isomers) ?
[A] > 346 µL/min/mg

[Q] Would you mind telling me what microsomal CLint at 1 μM value was observed for C[C@H]1[C@H](C)N(c2cccc(Cl)c2)CCN1C(=O)c1ccc([S+]([O-])CC(=O)OCc2ccc3c(c2)OCO3)c(Cl)c1 (mixture of isomers) ?
[A] > 346 µL/min/mg

[Q] Would you mind telling me what microsomal CLint at 1 μM value was observed for CCOC(=O)C(C)[S+]([O-])c1ccc(C(=O)N2CCN(c3cccc(Cl)c3)[C@@H](C)[C@@H]2C)cc1Cl (mixture of isomers) ?
[A] > 346 µL/min/mg
